Molecular target: T1, plasma-derived human activated protein C (APC) (UniProt P04070 43-461)
T1 chain: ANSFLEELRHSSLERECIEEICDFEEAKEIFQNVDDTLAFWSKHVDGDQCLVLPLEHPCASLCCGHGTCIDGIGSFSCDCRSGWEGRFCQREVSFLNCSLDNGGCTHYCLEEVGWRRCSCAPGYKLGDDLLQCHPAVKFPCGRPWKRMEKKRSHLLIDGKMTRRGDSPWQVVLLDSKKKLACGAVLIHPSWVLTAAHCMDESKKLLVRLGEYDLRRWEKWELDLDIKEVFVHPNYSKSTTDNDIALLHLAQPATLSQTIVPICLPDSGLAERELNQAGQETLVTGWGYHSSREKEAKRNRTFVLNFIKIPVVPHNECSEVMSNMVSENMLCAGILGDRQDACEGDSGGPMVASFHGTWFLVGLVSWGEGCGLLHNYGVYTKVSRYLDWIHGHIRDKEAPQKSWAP
Experiment: SPR; head prints nM; kd/ka gives M
In this section, each of the binders is paired with its reported Kd.
Express your answer in nM, writing the number without its unit.

>>> value_measured("TPP-29855 (antibody, V domains shown) VH: EVQLVESGGGLVQPGGSLRLSCAASGFTFSNYYMNWVRQAPGKGLEWVSYISSRSSTIYYADSVKGRFTISRDDSKNSLYLQMNSLKTEDTAVYYCAREGDYFDYWGQGTLVTVSS VL: EIVLTQSPGTLSLSPGERATLSCRASQSVSSFGATFMHWYQQKPGQPPKLLIYLASNRASGVPDRFSGSGSGTDFTLKISRVEAEDVGVYYCQQNNEDPYTFGQGTKLEIKR")
26.1
>>> value_measured("TPP-29856 (antibody, V domains shown) VH: EVQLVESGGGLVQPGGSLRLSCAASGFTFSNYYMNWVRQAPGKGLEWVSYISSSSSTIYYADSVKGRFTISRDDSKNSLYLQMNSLKTEDTAVYYCAREGDYFDYWGQGTLVTVSS VL: EIVLTQSPGTLSLSPGERATLSCRASQSVSSFGATFMHWYQQKPGQPPKLLIYLASHRASGVPDRFSGSGSGTDFTLKISRVEAEDVGVYYCQQNNEDPYTFGQGTKLEIKR")
21.3
>>> value_measured("TPP-29852 (antibody, V domains shown) VH: EVQLVESGGGLVQPGGSLRLSCAASGFTFSFYYMNWVRQAPGKGLEWVSYISSSSSTIYYADSVKGRFTISRDDSKNSLYLQMNSLKTEDTAVYYCAREGDYFDYWGQGTLVTVSS VL: EIVLTQSPGTLSLSPGERATLSCRASQSVSSFGATFMHWYQQKPGQPPKLLIYLASNRASGVPDRFSGSGSGTDFTLKISRVEAEDVGVYYCQQNNEDPYTFGQGTKLEIKR")
1.18
>>> value_measured("TPP-29848 (antibody, V domains shown) VH: EVQLVESGGGLVQPGGSLRLSCAASGFTFSNYYMNWVRQAPGKGLEWVSYISSSSSTIYYADSVKGRFTISRDDSKNSLYLQMNSLKTEDTAVYYCAREGDYFDYWGQGTLVTVSS VL: EIVLTQSPGTLSLSPGERATLSCRASESVSSFGATFMHWYQQKPGQPPKLLIYLASNRASGVPDRFSGSGSGTDFTLKISRVEAEDVGVYYCQQNNEDPYTFGQGTKLEIKR")
16.2
>>> value_measured("TPP-29847 (antibody, V domains shown) VH: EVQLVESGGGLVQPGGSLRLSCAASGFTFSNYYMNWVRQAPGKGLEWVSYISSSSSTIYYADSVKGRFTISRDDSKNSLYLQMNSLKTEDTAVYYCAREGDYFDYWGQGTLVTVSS VL: EIVLTQSPGTLSLSPGERATLSCRASQSVSSFGATFMHWYQQKPGQPPKLLIYLASNRASGVPDRFSGSGSGTDFTLKISRVEAEDVGVYYCQQNNEDPFTFGQGTKLEIKR")
8.33
>>> value_measured("TPP-29861 (antibody, V domains shown) VH: EVQLVESGGGLVQPGGSLRLSCAASGFTFSNYYMNWVRQAPGKGLEWVSYISSSSRTIYYADSVKGRFTISRDDSKNSLYLQMNSLKTEDTAVYYCAREGDYFDYWGQGTLVTVSS VL: EIVLTQSPGTLSLSPGERATLSCRASQSVSSFGATFMHWYQQKPGQPPKLLIYLASNRASGVPDRFSGSGSGTDFTLKISRVEAEDVGVYYCQQNNEDPYTFGQGTKLEIKR")
11.3
>>> value_measured("TPP-26939 (antibody, V domains shown) VH: EVQLVESGGGLVQPGGSLRLSCAASGFTFSNYYINWVRQAPGKGLEWVGDIRLKSNNYEKHYAESVKGRFTISRDDSKNSLYLQMNSLKTEDTAVYYCAREGDYFDYWGQGTLVTVSS VL: DIVLTQSPASLAVSPGQRATITCKASQSVSSFGATFMHWYQQKPGQPPKLLIYLASNRASGVPDRFSGSGSGTDFTLKISRVEAEDVGVYYCQQNNEDPYTFGQGTKLEIKR")
52.1
>>> value_measured("TPP-29865 (antibody, V domains shown) VH: EVQLVESGGGLVQPGGSLRLSCAASGFTFSNYYFNWVRQAPGKGLEWVSYISSSSSTIYYADSVKGRFTISRDDSKNSLYLQMNSLKTEDTAVYYCAREGDYFDYWGQGTLVTVSS VL: EIVLTQSPGTLSLSPGERATLSCRASQSVSSFGATFMHWYQQKPGQPPKLLIYLASNRASGVPDRFSGSGSGTDFTLKISRVEAEDVGVYYCQQNNEDPYTFGQGTKLEIKR")
12.7
>>> value_measured("TPP-29846 (antibody, V domains shown) VH: EVQLVESGGGLVQPGGSLRLSCAASGFTFSPYYMNWVRQAPGKGLEWVSYISSSSSTIYYADSVKGRFTISRDDSKNSLYLQMNSLKTEDTAVYYCAREGDYFDYWGQGTLVTVSS VL: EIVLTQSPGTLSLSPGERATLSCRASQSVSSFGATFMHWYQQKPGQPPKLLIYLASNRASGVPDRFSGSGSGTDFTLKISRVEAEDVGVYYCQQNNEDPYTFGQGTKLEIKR")
6.37

Next, consider the following binder.
(Q) // Kd lookup, key: TPP-29860 (antibody, V domains shown) VH: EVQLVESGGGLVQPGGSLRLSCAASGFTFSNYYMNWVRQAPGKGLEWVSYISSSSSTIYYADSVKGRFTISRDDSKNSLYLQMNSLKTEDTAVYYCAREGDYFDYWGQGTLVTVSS VL: EIVLTQSPGTLSLSPGERATLSCRASQSVSSFGATFMHWYQQKPGQPPKLLIYLASNRASGVPDRFSGSGSGTDFTLKISRVEAEDVGVYYCTQNNEDPYTFGQGTKLEIKR
(A) 23.9
